Assay: Solubility in deionised water, acetate, succinate and citrate buffers (Example 5)
Type: physicochemical
Conditions: citrate buffer, aqueous buffer, thermodynamic from solid; 50 mM Citrate pH 5.5; pH 5.23; read-out: Solubility L-lactate salt of compound of formula (I)
measure: solubility (mg/mL)
Give bare numbers, in mg/mL.

Param item = `CC(C)c1cc(C(=O)N2Cc3ccc(CN4CCN(C)CC4)cc3C2)c(O)cc1O.C[C@H](O)C(=O)O` ; retrieve measured solubility.
85.6

* * *

Experiment: Solubility in deionised water, acetate, succinate and citrate buffers (Example 5)
Format: physicochemical
Settings: succinate buffer, aqueous buffer, thermodynamic from solid; 100 mM Succinate pH 6.0; pH 5.76; read-out: Solubility L-lactate salt of compound of formula (I)
measure: solubility (mg/mL)
Answers are plain numbers, in mg/mL.

Which measured solubility value corresponds to `CC(C)c1cc(C(=O)N2Cc3ccc(CN4CCN(C)CC4)cc3C2)c(O)cc1O.C[C@H](O)C(=O)O` ?
89.9
